- Tested on: HL-60 cells
- TEST_DETAILS: In vitro cytotoxicity, MTS assay
- Format: cell-based
- CONDITION: JS-K to polymer 1.97% by weight
PROPERTY_LABEL: IC50
Please answer using the number first and the unit second.

input: Quick one: IC50 of CCOC(=O)N1CCN(/[N+]([O-])=N/Oc2ccc([N+](=O)[O-])cc2[N+](=O)[O-])CC1 [free JS-K] ?
output: 450 nM
